biological target: human GPR43 receptor (hGPR43) (Homo sapiens); construct: expressed in transfected cells; test: GTPγS binding assay (SPA method); type: biochemical; conditions: membranes expressing hGPR43; assay performed in the presence of SCFA; read-out: EC50 (nM) in GTPγ35S assay
Hi! Could you tag entries with EC50 below 900 nM as Condition met, and those at or above as Condition not met? Much appreciated.

Check out these entries, answers already filled in.
[ask] Strictly below 900 nM: is that where EC50 of O=C(O)C[C@@H](Cc1ccccc1)C(=O)N(CCOCc1ccccc1)c1nc(-c2ccccc2Cl)cs1 [Compound 201] sits?
[reply] Condition not met

[ask] Strictly below 900 nM: is that where EC50 of CC(C)C[C@H](CC(=O)O)C(=O)N(C)c1nc(-c2ccccc2Cl)cs1 [Compound 90] sits?
[reply] Condition met

[ask] Strictly below 900 nM: is that where EC50 of CN(C(=O)[C@@H](CC(=O)O)Cc1ccccc1)c1nc(-c2ccccc2Cl)c(Cl)s1 [Compound 21] sits?
[reply] Condition met

***
[ask] Strictly below 900 nM: is that where EC50 of CN(C(=O)[C@@H](CC(=O)O)Cc1ccccc1)c1nc(-c2ccccc2-c2ccsc2)cs1 [Compound 107] sits?
[reply] Condition met

[ask] Strictly below 900 nM: is that where EC50 of C=CCN(C(=O)[C@@H](CC(=O)O)Cc1ccccc1)c1nc(-c2ccccc2Cl)cs1 [Compound 22] sits?
[reply] Condition met

[ask] Strictly below 900 nM: is that where EC50 of CN(C(=O)[C@@H](CC(=O)O)Cc1ccccc1)c1nc(-c2cccc(OC(F)F)c2)cs1 [Compound 164] sits?
[reply] Condition met

---

Listed here are molecules together with their documented EC50.
Target: human GPR43 receptor (hGPR43) (Homo sapiens, UniProt O15552)
Construct: expressed in transfected cells
Sequence (O15552 whole entry): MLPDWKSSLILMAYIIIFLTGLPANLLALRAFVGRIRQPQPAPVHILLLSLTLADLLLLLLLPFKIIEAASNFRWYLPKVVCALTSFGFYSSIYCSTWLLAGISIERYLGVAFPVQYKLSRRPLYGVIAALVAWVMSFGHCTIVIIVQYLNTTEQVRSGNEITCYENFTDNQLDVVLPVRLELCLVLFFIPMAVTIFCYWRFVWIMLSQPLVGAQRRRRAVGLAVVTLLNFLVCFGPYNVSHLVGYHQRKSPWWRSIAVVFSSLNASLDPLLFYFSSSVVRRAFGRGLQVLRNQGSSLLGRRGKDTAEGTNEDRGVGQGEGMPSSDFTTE
Assay: GTPγS binding assay (SPA method)
Assay type: biochemical
Conditions: membranes expressing hGPR43; assay performed in the presence of SCFA; read-out: EC50 (nM) in GTPγ35S assay
Description: The following assay can be used for determination of GPR43 activation. When a GPCR is in its active state, either as a result of ligand binding or constitutive activation, the receptor couples to a G protein and stimulates the release of GDP and subsequent binding of GTP to the G protein. The alpha subunit of the G protein-receptor complex acts as a GTPase and slowly hydrolyses the GTP to GDP, at which point the receptor normally is deactivated. Activated receptors continue to exchange GDP for GTP. […]

The reported EC50 of the molecule `C[C@H](c1ccccc1)[C@@H](CC(=O)O)C(=O)N(C)c1nc(-c2ccccc2Cl)cs1` was 2170 nM

The reported EC50 of the molecule `O=C(O)C[C@@H](Cc1ccccc1)C(=O)Nc1nc(-c2cccc(Cl)c2)cs1` was 424 nM

The reported EC50 of the molecule `CCCC[C@H](CC(=O)O)C(=O)Nc1nc(-c2ccccc2Cl)cs1` was 389 nM

The reported EC50 of the molecule `CN(C(=O)[C@@H](CC(=O)O)Cc1ccccc1)c1nc(-c2ccccc2-c2cnc3c(c2)CCC(=O)N3C)cs1` was 341 nM

---

Listed here are compounds together with their documented EC50.
target: human GPR43 receptor (hGPR43) (Homo sapiens, UniProt O15552); construct: expressed in transfected cells; assay: GTPγS binding assay (SPA method); format: biochemical; conditions: membranes expressing hGPR43; assay performed in the presence of SCFA; read-out: EC50 (nM) in GTPγ35S assay

Answered cases to consult:
The reported EC50 of the compound `O=C(O)C[C@@H](Cc1ccccc1)C(=O)Nc1ccc(-c2ccccc2Cl)c[n+]1[O-]` was 1830 nM

The reported EC50 of the compound `O=C(O)C[C@@H](Cc1ccccc1)C(=O)Nc1ccc(-c2ccccc2Cl)cn1` was 426 nM

***
The reported EC50 of the compound `O=C(O)C[C@@H](Cc1ccccc1)C(=O)N(c1nc(-c2cc(C(F)(F)F)ccc2Cl)cs1)C1CC1` was 37 nM
